molecular target: SARS-CoV-2 spike glycoprotein RBD domain (SARS-CoV-2, UniProt P0DTC2 SEQ:1-223); assay: SPR
property.measured: Kd

Observe how each entry below is paired with its result.
1) Binding nucleic acid molecule 1 (ssDNA, NG7 (modified thymine, formula 1) at underlined T, i.e. T residues 3' of the first 23 nt (underlining of some T differs between printings); 3' poly(dA)20 tail unmodified) DNA: GGTATGTCTCCGCCACTGAAATCCGTGCCTAATCTCACCCCACGGAATTCATGGCAAAGCCGAGGTGTCTTGTATTCAAAAAAAAAAAAAAAAAAAA :: 1.2 nM
2) Binding nucleic acid molecule 5 (ssDNA, NG7 (modified thymine, formula 1) at underlined T, i.e. T residues 3' of the first 23 nt (underlining of some T differs between printings)) DNA: GGTTTAGCCCTCGACTCCAAATGTGCACTCTCCCGGTATCCCTAATCTCACCCGATACCGTTGATGTGCTGCCAATACAAAAAAAAAAAAAAAAAAAA :: < 0.1 nM
3) Binding nucleic acid molecule 11 (ssDNA, NG7 (modified thymine, formula 1) at all T 3' of the first 15 nt) DNA: TGTGCACTCTCCCGGTATCCCTAATCTCACCCGATACCAAAAAAAAAAAAAAAAAAAA :: < 0.1 nM
4) Binding nucleic acid molecule 7 (ssDNA, NG7 (modified thymine, formula 1) at all T 3' of the first 23 nt) DNA: GGTTTAGCCCTCGACTCCAAATGTGCTGATACTCGGTATCCCTAATCTCACCCGATACCGTTGATGTGCTGCCAATACAAAAAAAAAAAAAAAAAAAA :: < 0.1 nM

Consider the additional binder presented here.
Q: Query Kd for Binding nucleic acid molecule 13 (ssDNA, NG7 (modified thymine, formula 1) at all T 3' of the first 12 nt) DNA: GCTGATACTCGGTATCCCTAATCTCACCCGATACCGAAAAAAAAAAAAAAAAAAAA
Ans: < 0.1 nM
